Each recorded value in this set is attributed to patent US20150353495A1.

Quick list: pIC50 per entry.
Biological target: JAK1 (Homo sapiens)
Construct: 5 μl of catalytic domain recombinant Kinase enzyme+Tyr peptide substrate (Invitrogen, CA); purchased Invitrogen
Sequence (P23458 875-1153 limits assumed): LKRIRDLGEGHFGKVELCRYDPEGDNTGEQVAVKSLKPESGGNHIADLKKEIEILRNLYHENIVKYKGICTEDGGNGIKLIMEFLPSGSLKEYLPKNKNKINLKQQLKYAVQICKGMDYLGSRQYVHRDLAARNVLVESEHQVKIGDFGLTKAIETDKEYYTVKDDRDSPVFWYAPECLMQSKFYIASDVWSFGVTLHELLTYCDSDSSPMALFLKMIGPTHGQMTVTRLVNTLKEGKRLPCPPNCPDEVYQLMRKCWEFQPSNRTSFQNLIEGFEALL
Assay: Z'-LYTE kinase assay JAK1
Type: biochemical
pIC50: −log10 of the molar value.

Recorded pIC50 of `CN(C)S(=O)(=O)c1ccc(Nc2cc(NCc3cc(F)ccc3F)c(C(N)=O)cn2)cc1` , please.
< 6.00

Follow-up item: `COCC(=O)N1CC(c2ccc(Nc3cc(NCc4ccccc4)c(C(N)=O)cn3)cc2)C1`
6.00 to 7.00

====

Target: JAK1 (Homo sapiens)
Construct: 5 μl of catalytic domain recombinant Kinase enzyme+Tyr peptide substrate (Invitrogen, CA)
Assay: Z'-LYTE kinase assay JAK1
measuredProperty: IC50

Guide cases for IC50, answers given:
| inputSmiles | reportedMeasurement |
| --- | --- |
| NC(=O)c1cnc(Nc2cccc(N3CCCCC3)c2)cc1N[C@H](CO)c1ccccc1 | > 1000 nM |
| Cc1cc(Nc2cc(NCc3ccccc3)c(C(N)=O)cn2)ccc1C(=O)N(C)C | 100 to 1000 nM |
| COc1ccc(Nc2cc(N[C@@H]3CCCN(C(C)=O)C3)c(C(N)=O)cn2)cc1 | > 1000 nM |

Look at this compound and give its reported IC50. `CCC(=O)N(C)c1ccc(Nc2cc(NCc3cccc4cc[nH]c34)c(C(N)=O)cn2)cc1`
> 1000 nM

Can you check `CCC(=O)N1CC(c2ccc(Nc3cc(NCc4ccccc4)c(C(N)=O)cn3)cc2)C1` next?
100 to 1000 nM

Item: `COc1ccc(Nc2cc(NCc3cc(F)ccc3F)c(C(N)=O)cn2)cc1`
100 to 1000 nM

Next compound: `NC(=O)c1cnc(Nc2cccc(C3CCOCC3)c2)cc1NC1CCOCC1`
100 to 1000 nM
